// provenance: BindingDB's records for doi:10.1038/sj.npp.1300819

Target: 5-hydroxytryptamine receptor 5A (Homo sapiens)
Sequence (P47898 whole entry): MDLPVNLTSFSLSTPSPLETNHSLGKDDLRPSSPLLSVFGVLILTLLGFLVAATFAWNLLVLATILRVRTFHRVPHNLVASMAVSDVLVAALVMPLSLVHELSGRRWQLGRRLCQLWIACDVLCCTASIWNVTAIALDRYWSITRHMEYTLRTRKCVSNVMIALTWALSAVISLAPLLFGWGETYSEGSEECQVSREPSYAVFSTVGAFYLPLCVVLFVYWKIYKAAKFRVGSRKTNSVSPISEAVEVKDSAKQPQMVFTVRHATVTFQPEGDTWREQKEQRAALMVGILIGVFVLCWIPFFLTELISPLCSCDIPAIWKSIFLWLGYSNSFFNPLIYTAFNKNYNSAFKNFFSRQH
pKi: −log10 of the molar value.
assay.endpoint: pKi

In [3]: df
Out[3]:
                                   compound  quantitative_result
0  CN(C)CCON=C(C=Cc1ccc(O)cc1)c1ccccc1F [NSC_6438382]                 5.76

---

Protein target, amino acids: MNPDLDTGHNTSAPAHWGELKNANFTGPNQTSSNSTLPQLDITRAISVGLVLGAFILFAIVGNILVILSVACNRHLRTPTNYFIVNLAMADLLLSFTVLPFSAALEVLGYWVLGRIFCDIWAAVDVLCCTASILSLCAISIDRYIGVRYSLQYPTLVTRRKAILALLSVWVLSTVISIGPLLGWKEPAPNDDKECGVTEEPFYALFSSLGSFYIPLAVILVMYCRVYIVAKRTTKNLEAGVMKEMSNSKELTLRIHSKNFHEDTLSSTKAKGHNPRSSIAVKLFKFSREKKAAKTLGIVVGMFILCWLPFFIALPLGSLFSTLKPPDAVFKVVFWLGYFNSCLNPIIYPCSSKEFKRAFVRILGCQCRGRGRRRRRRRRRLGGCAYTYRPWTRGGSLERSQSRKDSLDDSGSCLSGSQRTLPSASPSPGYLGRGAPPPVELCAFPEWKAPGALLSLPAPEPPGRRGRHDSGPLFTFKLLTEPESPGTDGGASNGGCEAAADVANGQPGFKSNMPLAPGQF
pKi: −log10 of the molar value.
assay.endpoint: pKi

In [3]: df
Out[3]:
                                   molecule  assay_endpoint  quantitative_result
0  OC(c1ccccc1)C1CCN(CCc2ccccc2)CC1 (stereo unspecified) [MDL-11939]             pKi                 5.80
